System: Proteus vulgaris OCC 195
assay summary: MIC in Nutrient Broth No. 2
Assay type: cell-based
protocol conditions: Nutrient Broth No. 2; without inducer
attribute measured: MIC (µg/mL)
Just the number in µg/mL, nothing appended.

Ask: Endpoint output: MIC of OC[C@H]1O[C@H](Oc2cc(Cl)ccc2Oc2ccc(Cl)cc2Cl)[C@H](O)[C@@H](O)[C@H]1O [α-D-Galactoside, triclosan-α-D-galactopyranoside] . Value?
Result: 64

Ask: Can you share its MIC? I mean this molecule: OC[C@H]1O[C@H](Oc2cc(Cl)ccc2Oc2ccc(Cl)cc2Cl)[C@H](O)[C@@H](O)[C@@H]1O [α-D-Glucoside, triclosan-α-D-glucopyranoside]
Result: 4

Ask: Fill in: MIC of OC[C@H]1O[C@@H](Oc2cc(Cl)ccc2Oc2ccc(Cl)cc2Cl)[C@H](O)[C@@H](O)[C@@H]1O [β-D-Glucoside, triclosan-β-D-glucopyranoside] is ___
Result: 64

Ask: Form field: reported MIC of OC[C@H]1O[C@H](Oc2cc(Cl)ccc2Oc2ccc(Cl)cc2Cl)[C@@H](O)[C@@H](O)[C@@H]1O [α-D-Mannoside, triclosan-α-D-mannopyranoside]
Result: 32

Ask: # lookup: MIC of O[C@@H]1[C@H](Oc2cc(Cl)ccc2Oc2ccc(Cl)cc2Cl)OC[C@@H](O)[C@H]1O [β-D-Arabinoside, triclosan-β-D-arabinopyranoside]
Result: 128

---

Tested on: E. hermanii
assay summary: MIC in Nutrient Agar
Type: cell-based, Escherichia hermanii
protocol conditions: Nutrient Agar containing 0.1 μg/ml of inducer; 37° C., 24 hours
attribute measured: MIC (µg/mL)
Number only, in µg/mL; omit the unit.

Ask: Record lookup: for E. hermanii, what MIC belongs to OC[C@H]1O[C@@H](Oc2cc(Cl)ccc2Oc2ccc(Cl)cc2Cl)[C@H](O)[C@@H](O)[C@@H]1O [β-D-Glucoside, triclosan-β-D-glucopyranoside] ?
Result: 16

Ask: Quick check: MIC on E. hermanii, item OC[C@H]1O[C@H](Oc2cc(Cl)ccc2Oc2ccc(Cl)cc2Cl)[C@@H](O)[C@@H](O)[C@@H]1O [α-D-Mannoside, triclosan-α-D-mannopyranoside] ?
Result: 16

Ask: Quick check: MIC on E. hermanii, item OC[C@H]1O[C@H](Oc2cc(Cl)ccc2Oc2ccc(Cl)cc2Cl)[C@H](O)[C@@H](O)[C@@H]1O [α-D-Glucoside, triclosan-α-D-glucopyranoside] ?
Result: 1

Ask: Write down the reported MIC of OC[C@H]1O[C@H](Oc2cc(Cl)ccc2Oc2ccc(Cl)cc2Cl)[C@H](O)[C@@H](O)[C@H]1O [α-D-Galactoside, triclosan-α-D-galactopyranoside] , test system: E. hermanii.
Result: 32

Ask: Form field - read-out: MIC; system: E. hermanii; submitted item: O[C@@H]1[C@H](Oc2cc(Cl)ccc2Oc2ccc(Cl)cc2Cl)OC[C@@H](O)[C@H]1O [β-D-Arabinoside, triclosan-β-D-arabinopyranoside]
Result: 32

---

System: Citrobacter freundii OCC 851
assay summary: MIC in Nutrient Broth No. 2
Format: cell-based
protocol conditions: Nutrient Broth No. 2; with inducer 100 μg/ml
attribute measured: MIC (µg/mL)
A number alone suffices; assume µg/mL.

Ask: So what does the record say about MIC for OC[C@H]1O[C@H](Oc2cc(Cl)ccc2Oc2ccc(Cl)cc2Cl)[C@H](O)[C@@H](O)[C@@H]1O [α-D-Glucoside, triclosan-α-D-glucopyranoside] ?
Result: 4

Ask: Need MIC of OC[C@H]1O[C@H](Oc2cc(Cl)ccc2Oc2ccc(Cl)cc2Cl)[C@@H](O)[C@@H](O)[C@@H]1O [α-D-Mannoside, triclosan-α-D-mannopyranoside] , thanks.
Result: 64

Ask: Look up MIC: OC[C@H]1O[C@@H](Oc2cc(Cl)ccc2Oc2ccc(Cl)cc2Cl)[C@H](O)[C@@H](O)[C@@H]1O [β-D-Glucoside, triclosan-β-D-glucopyranoside]
Result: 8

Ask: Item O[C@@H]1[C@H](Oc2cc(Cl)ccc2Oc2ccc(Cl)cc2Cl)OC[C@@H](O)[C@H]1O [β-D-Arabinoside, triclosan-β-D-arabinopyranoside] has what recorded MIC?
Result: 64

Ask: So what's the measured MIC for this one? OC[C@H]1O[C@H](Oc2cc(Cl)ccc2Oc2ccc(Cl)cc2Cl)[C@H](O)[C@@H](O)[C@H]1O [α-D-Galactoside, triclosan-α-D-galactopyranoside]
Result: 128

---

System: Kleb. aerogenes NCTC 88167
assay summary: MIC in Nutrient Broth No. 2
Type: cell-based, Klebsiella aerogenes
protocol conditions: Nutrient Broth No. 2; with inducer 100 μg/ml
attribute measured: MIC (µg/mL)
Supply the numeric figure in µg/mL, leaving out any unit text.

Ask: Requested read-out MIC, target or system Kleb. aerogenes NCTC 88167, entry O[C@@H]1[C@H](Oc2cc(Cl)ccc2Oc2ccc(Cl)cc2Cl)OC[C@@H](O)[C@H]1O [β-D-Arabinoside, triclosan-β-D-arabinopyranoside]
Result: 32

Ask: Entry OC[C@H]1O[C@@H](Oc2cc(Cl)ccc2Oc2ccc(Cl)cc2Cl)[C@H](O)[C@@H](O)[C@@H]1O [β-D-Glucoside, triclosan-β-D-glucopyranoside] , system Kleb. aerogenes NCTC 88167: what MIC was measured?
Result: 4

Ask: Notebook entry, Kleb. aerogenes NCTC 88167 assay: MIC of OC[C@H]1O[C@H](Oc2cc(Cl)ccc2Oc2ccc(Cl)cc2Cl)[C@@H](O)[C@@H](O)[C@@H]1O [α-D-Mannoside, triclosan-α-D-mannopyranoside] = ?
Result: 32

Ask: Give recorded MIC with Kleb. aerogenes NCTC 88167 for the following compound: OC[C@H]1O[C@H](Oc2cc(Cl)ccc2Oc2ccc(Cl)cc2Cl)[C@H](O)[C@@H](O)[C@@H]1O [α-D-Glucoside, triclosan-α-D-glucopyranoside]
Result: 4

Ask: Find the measured MIC: item OC[C@H]1O[C@H](Oc2cc(Cl)ccc2Oc2ccc(Cl)cc2Cl)[C@H](O)[C@@H](O)[C@H]1O [α-D-Galactoside, triclosan-α-D-galactopyranoside] , target or system Kleb. aerogenes NCTC 88167.
Result: 64

---

I'd appreciate it if you could supply log10 MIC values for the items below.
System: E. hermanii ATCC 33650
assay summary: MIC in Nutrient Broth No. 2
Assay type: cell-based, Escherichia hermanii
protocol conditions: Nutrient Broth No. 2; with inducer 100 μg/ml
The figures below represent log10 of MIC, where MIC is stated in µg/mL.

Ask: Suppose we examine the compound OC[C@H]1O[C@@H](Oc2cc(Cl)ccc2Oc2ccc(Cl)cc2Cl)[C@H](O)[C@@H](O)[C@@H]1O [β-D-Glucoside, triclosan-β-D-glucopyranoside] ; what log10 MIC value has been reported?
Result: 0.30

Ask: I am curious: what log10 MIC value has been reported for OC[C@H]1O[C@H](Oc2cc(Cl)ccc2Oc2ccc(Cl)cc2Cl)[C@H](O)[C@@H](O)[C@@H]1O [α-D-Glucoside, triclosan-α-D-glucopyranoside] ?
Result: 0.00

Ask: Recorded log10 MIC of OC[C@H]1O[C@H](Oc2cc(Cl)ccc2Oc2ccc(Cl)cc2Cl)[C@H](O)[C@@H](O)[C@H]1O [α-D-Galactoside, triclosan-α-D-galactopyranoside] , please.
Result: 1.51

Ask: So what's the measured log10 MIC for this one? O[C@@H]1[C@H](Oc2cc(Cl)ccc2Oc2ccc(Cl)cc2Cl)OC[C@@H](O)[C@H]1O [β-D-Arabinoside, triclosan-β-D-arabinopyranoside]
Result: 1.20

Ask: Value lookup for log10 MIC; key = OC[C@H]1O[C@H](Oc2cc(Cl)ccc2Oc2ccc(Cl)cc2Cl)[C@@H](O)[C@@H](O)[C@@H]1O [α-D-Mannoside, triclosan-α-D-mannopyranoside]
Result: 0.90

---

For each entry below, report its MIC value.
System: Kleb. aerogenes NCTC 88167
assay summary: MIC in Nutrient Broth No. 2
Assay type: cell-based, Klebsiella aerogenes
protocol conditions: Nutrient Broth No. 2; without inducer
Report only the number, with the unit µg/mL understood.

Ask: Item under review: OC[C@H]1O[C@H](Oc2cc(Cl)ccc2Oc2ccc(Cl)cc2Cl)[C@@H](O)[C@@H](O)[C@@H]1O [α-D-Mannoside, triclosan-α-D-mannopyranoside] . Reported MIC?
Result: 32

Ask: Suppose we examine the molecule OC[C@H]1O[C@@H](Oc2cc(Cl)ccc2Oc2ccc(Cl)cc2Cl)[C@H](O)[C@@H](O)[C@@H]1O [β-D-Glucoside, triclosan-β-D-glucopyranoside] ; what MIC value has been reported?
Result: 32

Ask: # input molecule: OC[C@H]1O[C@H](Oc2cc(Cl)ccc2Oc2ccc(Cl)cc2Cl)[C@H](O)[C@@H](O)[C@H]1O [α-D-Galactoside, triclosan-α-D-galactopyranoside] ; wanted: its MIC
Result: 32

Ask: Which MIC is reported for this molecule? O[C@@H]1[C@H](Oc2cc(Cl)ccc2Oc2ccc(Cl)cc2Cl)OC[C@@H](O)[C@H]1O [β-D-Arabinoside, triclosan-β-D-arabinopyranoside]
Result: 32

Ask: MIC for OC[C@H]1O[C@H](Oc2cc(Cl)ccc2Oc2ccc(Cl)cc2Cl)[C@H](O)[C@@H](O)[C@@H]1O [α-D-Glucoside, triclosan-α-D-glucopyranoside] ?
Result: 2
